Please respond with reported inhibition for every item in the list.
# test: human hepatoma cell viability loss – ATP luminescence, cytotoxicity control for P. falciparum antimalarial project, primary screen (AID 2303);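 also: 0% = DMSO wells and 100% = digitonin-killed cells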
# assay setup: HepG2 viability, 24-48 h, at 10 µM, hits give high values
Calls of active or inactive are those of the source.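 The calls were made as follows: active = inhibition above 50%; inactive = the rest.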

# molecule, inhibition
rows = [
    ("Cc1noc(C)c1-c1cccc(CNCc2ccc(-c3ccc(-c4nc5c(C)cccc5[nH]4)cc3)cc2)c1", "28% (inactive)"),
    ("CCCc1cc(NCC)nc(Nc2ccc(C)cc2)n1", "22% (inactive)"),
    ("COc1cccc2c(NCc3ccccc3)nc(NCCCN3CCCCC3C)nc12 (configuration not stated)", "20% (inactive)"),
    ("CCN1C(=O)C(CC(=O)Nc2cccc(Cl)c2)N(Cc2ccc(OC)c(OC)c2)C1=S (configuration not stated)", "13% (inactive)"),
    ("c1cncc(NCc2ccc(-c3cc4ccncc4cc3OC3CCNCC3)s2)c1", "4% (inactive)"),
]

Report inhibition for each item below.
1. CC(C)c1ccc(NC(=O)c2ccc(C(=O)NCC3CCN(CC4CCCCC4)CC3)cc2)cc1
2. Fc1cc(Cl)ccc1Nc1ccnc2cc(-c3ccc(CN4CCNCC4)o3)ccc12
3. O=C(Nc1ccc(N2CCCN(Cc3cccc(F)c3)CC2)cc1)c1ccccc1

1. 26% (inactive)
2. 16% (inactive)
3. 25% (inactive)

For each of the items listed, what is its inhibition?
1. CC1(C)N=C(N)N=C(N)N1c1cccc(I)c1
2. O=C(Nc1cccc(C(F)(F)F)c1)c1ccc(S(=O)(=O)NCC2CCCN2CC2CCCCC2)cc1 (configuration not stated)
3. CC(C)c1cc(C(=O)N[C@@H](Cc2ccccc2)[C@H](O)CNC2CCCCC2)cc(N2CCCC2=O)c1
4. O=C(Nc1ccc(Cl)cc1)c1cccc(S(=O)(=O)NC2CCN(CC3CCCCC3)C2)c1 (configuration not stated)

68% (active)
14% (inactive)
-11% (inactive)
80% (active)

Dear reader, for each entry below, please note its inhibition.
1. C[C@@H]1CN(c2ccnc3ccc(Sc4ccc(Oc5ccccc5)cc4)cc23)C[C@H](C)N1
2. CS(=O)(=O)CCNCc1ccc(-c2cc3c(Nc4ccc(OCc5cccc(F)c5)c(Cl)c4)ncnc3s2)[nH]1
3. Cc1cc(Nc2ccnc(-c3ccc(Cl)cc3)n2)ccn1
4. C[C@@H]1CN(c2cnn(Cc3cccc(NC(=O)Nc4ccc(-c5ccccc5)cc4)c3)c(=O)c2Cl)C[C@H](C)N1
5. COc1ccc(CCNC(=O)c2cc(C)ccc2O)cc1-c1ccc(C(C)(C)C)cc1

1. 33% (inactive)
2. 5% (inactive)
3. 6% (inactive)
4. 6% (inactive)
5. 1% (inactive)

Lab note: each molecule below needs its inhibition filled in.
1. CN(C)CCNCc1ncsc1-c1ccc2c(Nc3ccc(F)cc3Cl)ccnc2c1
2. O=C(/C=C/c1ccc(Cl)c(Cl)c1)N1CCN(C(=O)Nc2ccc(C(F)(F)F)cc2)CC1
3. CCN(CC)CCOc1ccc(C(O)(C#CC(O)(c2ccc(OCCN(CC)CC)cc2)c2ccc([N+](=O)[O-])cc2)c2ccc([N+](=O)[O-])cc2)cc1 (configuration not stated)
4. c1ccc(CNc2nc(NCCN3CCCCC3)nc3ccccc23)cc1

["-1% (inactive)", "47% (inactive)", "55% (active)", "19% (inactive)"]

Provenance of the data: PubChem BioAssay
